- SYSTEM TESTED: Protein translocase subunit SecA (Escherichia coli (strain K12)) (UniProt P10408)
- Sequence (P10408 whole entry): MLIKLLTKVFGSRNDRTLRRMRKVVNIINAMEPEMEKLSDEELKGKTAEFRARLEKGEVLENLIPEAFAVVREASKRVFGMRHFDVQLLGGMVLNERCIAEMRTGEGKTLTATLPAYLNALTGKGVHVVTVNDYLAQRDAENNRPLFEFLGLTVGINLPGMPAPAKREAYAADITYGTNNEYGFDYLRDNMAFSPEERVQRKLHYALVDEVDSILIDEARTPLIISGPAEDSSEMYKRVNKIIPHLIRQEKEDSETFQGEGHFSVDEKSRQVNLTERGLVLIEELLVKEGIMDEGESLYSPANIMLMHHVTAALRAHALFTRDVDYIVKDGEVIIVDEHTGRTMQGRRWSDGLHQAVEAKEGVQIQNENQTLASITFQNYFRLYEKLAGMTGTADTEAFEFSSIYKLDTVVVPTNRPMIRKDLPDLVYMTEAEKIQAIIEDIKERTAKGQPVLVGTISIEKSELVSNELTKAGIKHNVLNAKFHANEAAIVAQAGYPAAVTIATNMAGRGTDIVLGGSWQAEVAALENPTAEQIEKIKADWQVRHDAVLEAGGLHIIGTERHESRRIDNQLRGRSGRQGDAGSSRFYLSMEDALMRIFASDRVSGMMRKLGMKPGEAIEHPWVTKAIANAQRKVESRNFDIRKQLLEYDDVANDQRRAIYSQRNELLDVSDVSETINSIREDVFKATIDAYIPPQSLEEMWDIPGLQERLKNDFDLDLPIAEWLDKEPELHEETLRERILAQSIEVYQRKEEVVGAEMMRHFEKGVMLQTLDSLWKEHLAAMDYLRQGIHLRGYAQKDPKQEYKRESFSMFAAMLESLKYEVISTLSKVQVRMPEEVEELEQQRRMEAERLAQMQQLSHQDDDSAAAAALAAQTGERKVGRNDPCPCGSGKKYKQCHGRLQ
- ASSAY INFO: Assay to Identify E. coli SecA ATPase Inhibitors
- Format: functional
- Parameters: scale not given: direction of the effect not stated beside the values
- TEST PARAMETERS: 30 µM
Measured potencies and affinities stand elsewhere.
Listed compounds paired with reported Percent Effect
Answer with a number only, understood to be in %.

compound=Cc1ncsc1CCC(=O)NCc1cc2n(n1)CCN(C(=O)N(C)C)C2 system_tested="Protein translocase subunit SecA (Escherichia coli (strain K12)) (UniProt P10408)" metric_name="Percent Effect" units_label=% val=-0.664
compound="O=C(CN1CCCC1Cn1cncn1)NCCc1c(F)cccc1F (configuration not stated)" system_tested="Protein translocase subunit SecA (Escherichia coli (strain K12)) (UniProt P10408)" metric_name="Percent Effect" units_label=% val=-9.37
compound="Cc1cccc(S(=O)(=O)NCC(C)N2CCN(C)CC2)c1Cl (configuration not stated)" system_tested="Protein translocase subunit SecA (Escherichia coli (strain K12)) (UniProt P10408)" metric_name="Percent Effect" units_label=% val=-5.19
compound=Cc1cc(C(=O)N2Cc3ccccc3OC3(CCOCC3)C2)nc(N)n1 system_tested="Protein translocase subunit SecA (Escherichia coli (strain K12)) (UniProt P10408)" metric_name="Percent Effect" units_label=% val=-5.65
compound=Cc1cc(C(=O)N2CC[C@@H]3CN(c4ncccn4)CCO[C@@H]3C2)c(C)o1 system_tested="Protein translocase subunit SecA (Escherichia coli (strain K12)) (UniProt P10408)" metric_name="Percent Effect" units_label=% val=-0.56
compound=O=C(COc1coc(CN2CCCC2)cc1=O)NCc1ccccc1Cl system_tested="Protein translocase subunit SecA (Escherichia coli (strain K12)) (UniProt P10408)" metric_name="Percent Effect" units_label=% val=-2.51

// next entry
Input: Looking for the measured Percent Effect of c1cnnc(N2CCCC2CNCc2cnc(N3CCCC3)nc2)c1 (configuration not stated) , can you help?
Output: 0.488

---

# Percent Effect values compiled below
- SYSTEM TESTED: Chromo domain-containing protein 1 (Saccharomyces cerevisiae (strain ATCC 204508 / S288c) (Baker's yeast))
- ASSAY INFO: ScCHD-1 Enzyme Inhibition Assay; note: in the data most compounds retested in dose-response had high values
- Format: functional
- Parameters: scale not given: direction of the effect not stated beside the values
- TEST PARAMETERS: 30 µM
State just the number; it will be interpreted in %.

Worked set:
compound=c1ccc(CCCN2CC(n3cccn3)C2)cc1 metric_name="Percent Effect" units_label=% val=-5.99
compound=Cc1cc(O)c(OCC(=O)/N=c2\[nH]cc(C)s2)cn1 metric_name="Percent Effect" units_label=% val=-2.08

Input: Fill blank: measured Percent Effect of the compound CC(=O)Nc1nc(C(=O)NC(C)c2ccc(F)cc2)cs1 (stereo not drawn) is ____.
Output: -24.3

Input: I'd like to know its Percent Effect. The compound in question is `CC(=O)N1CCC(C(=O)NCCN2CCC(C)CC2)CC1`
Output: -3.45

Input: Would you mind telling me what Percent Effect value was observed for `Cc1cccc(C(=O)Nc2ccc(OC3CCN(C)CC3)cc2)c1` ?
Output: -8.12

Input: Consider the compound shown here: `Cc1cc(C(=O)N2Cc3ccccc3OC3(CCOCC3)C2)nc(N)n1` What is its recorded Percent Effect?
Output: -24

Input: Bench note: what Percent Effect did CCOc1cccc(CNC(=O)NCC(O)c2cccc(F)c2)c1 (stereo not drawn) show?
Output: -11.2

Input: // lookup Percent Effect for `CN(C)C1CCN(C(=O)c2ccc(Cn3ccccc3=O)o2)CC1`
Output: -4.27

Input: What measured Percent Effect goes with `CN(C)CCNC(=O)c1ccc(OC2CCN(S(C)(=O)=O)CC2)c(Cl)c1` ?
Output: -4.57

Input: Record request: Percent Effect value, item `CCC(CC)NC(=O)Cn1nc(C)nc1-c1ccccc1`
Output: -8.07

Input: Field request: Percent Effect | item: COc1ccccc1C(=O)NC(C)CC(=O)O (stereo not drawn)
Output: -12.9

Input: State the recorded Percent Effect for this entry: Cc1nn(C)cc1CN1CCC(C2Nc3ccccc3S(=O)(=O)N2)CC1 (stereo not drawn)
Output: -9.41

Input: I would be grateful if you could share the reported Percent Effect for Cc1oncc1C(=O)N1CCC2(C1)CN(c1cccnc1)C(=O)CN2C (stereo not drawn) .
Output: -5.61

Input: May I ask what Percent Effect has been recorded for Cc1nn(C)c(N(C)C)c1CNCC(O)c1ccccc1 (stereo not drawn) ?
Output: -3.32

Input: What value of Percent Effect has been reported for the following compound? CCN1CCC(NC(=O)CN2CCCCC2Cn2cc(C)cn2)CC1 (stereo not drawn)
Output: -23.6

Input: Value lookup for Percent Effect; key = `CC(C)Nc1nc(N2CCOCC2)nc2c1CN(Cc1ccoc1)CC2`
Output: -3.95

Input: Entry `CCn1c(Cn2cncn2)nnc1C1CCN(C(=O)CCSC)CC1` has what Percent Effect?
Output: -3.37
